- assay.info: Confirmation screen for delayed death inhibitors of the malarial parasite plastid, 48 hour incubation; further: nearly all actives have a fitted effect of over 65% in size
- assay.setup: P. falciparum-infected erythrocytes, luciferase growth; series mostly up to 28.7 µM
Among all 2,300 compounds or so, about 1,200 (52%) were called active. About 34% were inconclusive and are not listed. The call rests on the fitted dose curve; in most records, active means well fitted inhibition curve with a large enough effect; inconclusive means small, poorly fitted or top-dose-only effect, or effect the other way; inactive means no such curve, though single readings can be large or run the other way. The set was probably picked from earlier hits. The list shows a part of the results.
Log the outcome using a class from active, inactive

Recorded test call requested for CCCCN(C)C(=O)C1CCC(CNS(=O)(=O)c2ccc3c(c2)CC(C)N3C(=O)C2CC2)CC1 (stereo unspecified) active

Recorded test call requested for Cc1cc(Br)ccc1NC(=O)CNC(=O)Cn1ncc(Cl)c(Cl)c1=O active

Recorded test call requested for CCCNC(=O)COC(=O)c1ccccc1C(=O)c1ccc(Cl)c([N+](=O)[O-])c1 active

Recorded test call requested for O=C(Nc1cccc(S(=O)(=O)NCc2ccco2)c1)c1cc(-c2ccc(F)cc2)nc2ccccc12 inactive

Recorded test call requested for COc1ccc(/C=C/C(=O)c2ccc(NS(=O)(=O)c3ccc(C)cc3)cc2)cc1O active

Recorded test call requested for CCN1C(=O)[C@@H]2Cc3c([nH]c4ccccc34)C(c3ccc(OC)cc3)N2C1=S (stereo partly specified) active

Recorded test call requested for COc1ccc(CN2CCN(Cc3cc4ccccc4o3)CC2CCO)cc1C (stereo unspecified) active

Recorded test call requested for CCc1ccccc1Nc1nc(N)nc(COC(=O)CCC(=O)c2ccc(F)cc2)n1 active

Recorded test call requested for CCOc1ccccc1CN1CCN(Cc2ccc3cccc(OC)c3n2)CC1CCO (stereo unspecified) active

Recorded test call requested for O=[N+]([O-])c1ccc(N2CCN(c3ccccc3)CC2)nc1 inactive

Recorded test call requested for CC1CCC/C=C/C(=O)c2c(O)cc(O)cc2CC(=O)O1 (stereo unspecified) active

Recorded test call requested for CC(CCc1ccccc1)NC(=O)COC(=O)c1ccc(S(C)(=O)=O)c([N+](=O)[O-])c1 (stereo unspecified) inactive

Recorded test call requested for COc1ccc(N2CCN(C(=O)CSc3nc4cc(OC)c(OC)cc4cc3C#N)CC2)cc1 active

Recorded test call requested for C=CCN1C(=O)[C@@H]2Cc3c([nH]c4ccccc34)C(c3ccc(O)cc3)N2C1=S (stereo partly specified) active

Recorded test call requested for CC(C)NC(=O)c1onc(CSc2ccc(C(C)C)cc2)c1C(=O)O inactive

Recorded test call requested for CCN(CC)CCC[C@H](C)Nc1c2ccc(Cl)cc2nc2ccc(OC)cc12 active

Recorded test call requested for CCc1ccccc1Nc1nc(N)nc(COC(=O)CCNS(=O)(=O)c2ccccc2)n1 active

Recorded test call requested for Cc1ccc[n+](CC(=O)Nc2ccc(C)c(C)c2)c1 active

Recorded test call requested for CCN(CC)CCC[C@H](C)Nc1ccnc2cc(Cl)ccc12 active

Recorded test call requested for CC(=O)c1ccc(NC(=O)C[n+]2cccc(C)c2)cc1 inactive

Recorded test call requested for Cc1ccc(C(=O)OCc2nc(N)nc(Nc3ccccc3C)n2)cc1 active

###

- assay.info: Confirmation screen for delayed death inhibitors of the malarial parasite plastid, 48 hour incubation; further: nearly all actives have a fitted effect of over 65% in size
- assay.setup: P. falciparum-infected erythrocytes, luciferase growth; series mostly up to 28.7 µM
The campaign covered roughly 2,300 compounds. About 1,200 (52%) were called active. Roughly 34% stayed inconclusive and do not appear here. The call rests on the fitted dose curve; in most records, active means well fitted inhibition curve with a large enough effect; inconclusive means small, poorly fitted or top-dose-only effect, or effect the other way; inactive means no such curve, though single readings can be large or run the other way. So high a share suggests a set chosen from earlier hits. The list shows a part of the results.
Log the outcome using a class from True = active, False = inactive

Recorded test call requested for Cc1nn(C(C)C(=O)NCCCc2ccccc2)c(=O)c2nn(-c3ccccc3)c(C)c12 (centres undefined) True

Recorded test call requested for COc1ccc(NC(=O)[C@H](Cc2c[nH]c3ccccc23)NC(=O)[C@@H]2Cc3ccccc3CN2)cc1 True

Recorded test call requested for CCN(CC)S(=O)(=O)c1ccc(C2=NOC3(C2)N(C)c2ccccc2C3(C)C)cc1 (centres undefined) True

Recorded test call requested for COc1cccc(NC(=O)[C@H](Cc2c[nH]c3ccccc23)NC(=O)[C@@H]2Cc3ccccc3CN2)c1 True

Recorded test call requested for O=C(NC12CC3CC(CC(C3)C1)C2)c1ccc([N+](=O)[O-])o1 True

Recorded test call requested for Cc1ccccc1C(=O)N1CCN(c2ccc(NC(=O)c3ccc([N+](=O)[O-])o3)cc2)CC1 True

Recorded test call requested for CCOc1ccc(Cl)cc1C1=CC(=O)C[C@H](c2ccc(OC)cc2)C1 True

Recorded test call requested for CCN(CC)c1ccc(/C=N/Nc2nc3ccccc3[nH]2)cc1 True

Recorded test call requested for COc1ccc(N(CC(=O)NCCSCc2ccc(C)cc2)S(=O)(=O)c2ccccc2)cc1 True

Recorded test call requested for O=C(Nc1nnc(SCc2ccc(F)cc2)s1)c1ccccn1 True

Recorded test call requested for Cc1c(NC(=O)C(C)Sc2nccn2C)c(=O)n(-c2ccccc2)n1C (centres undefined) False

Recorded test call requested for CN1c2ccccc2C(C)(C)C12CC(c1ccc(S(=O)(=O)N3CCCCC3)cc1)=NO2 (centres undefined) True

Recorded test call requested for CC(C)C(=O)NCCSc1c[nH]c2ccccc12 False

Recorded test call requested for CSc1ccc(CNc2cccc3ccccc23)cc1 False

Recorded test call requested for O=C(Nc1c2c(nn1-c1ccc([N+](=O)[O-])cc1)CS(=O)(=O)C2)c1cccs1 False

Recorded test call requested for O=C(NC1CCC1)C1CCC(=O)N(Cc2ccccc2F)C1 (centres undefined) False

Recorded test call requested for COCCN(C(=S)Nc1ccc(OC)c(Cl)c1)C1CCN(C(C)C)CC1 True

Recorded test call requested for O=C(Nc1ccc(N2CCN(C(=O)c3ccccc3)CC2)cc1)c1ccc([N+](=O)[O-])o1 True

Recorded test call requested for O=C(O)CCCN1C(=O)/C(=C\C(Cl)=C\c2ccccc2)SC1=S True

Recorded test call requested for Cc1c(/C=N/Nc2nc3ccccc3[nH]2)c2ccccc2n1C True

Recorded test call requested for COc1cc2c(cc1NC(=O)c1ccc(C(C)(C)C)cc1)CCCC2 True

Recorded test call requested for Cn1cnc([N+](=O)[O-])c1Sc1ccc(Br)cc1 False

Recorded test call requested for CCCCN(CCCC)CC(O)c1cc(Cl)cc2c1-c1ccc(Cl)cc1/C2=C/c1ccc(Cl)cc1 (centres undefined) True

Recorded test call requested for CC1CCN(C(=O)Cn2c(=O)oc3cc(S(=O)(=O)N4CCCCC4)ccc32)CC1 True

Recorded test call requested for COc1ccc(NC(=O)CCCn2nc(C)c3c(C)n(-c4ccccc4)nc3c2=O)cc1 True

Recorded test call requested for C#CCOCCOCCOCCNc1nc(N2CCN(C(=O)Cn3cc(CC(C)O)nn3)CC2)nc(N2CCN(C(=O)[C@H](C)n3cc(CCCN=C(N)N)nn3)CC2)n1 (some centres undefined) False

Recorded test call requested for Cc1ccc2nc(CNC(=O)C3CCC(=O)N(Cc4ccccc4F)C3)cn2c1 (centres undefined) True

Recorded test call requested for CCS(=O)(=O)N1Cc2ccccc2CC1C(=O)Nc1cccc(OC)c1 (centres undefined) False

Recorded test call requested for COc1cccc(C2=CC(=O)C[C@H](c3ccc(F)cc3)C2)c1OC False
